This collection of values is drawn from ChEMBL document CHEMBL4342459.

test: Activation of rat hepatocytes AMPK alpha1/beta1/gamma1 expressed in baculovirus infected Sf9 cells
measured-metric: pEC50
The meaning of pEC50 here: minus log10 of the concentration in molar units.

Per the records, this compound ( "O=C(O)CCc1nc2cc(Cl)c(Cl)cc2[nH]1" ) has pEC50 equal to 4.44

Record "O[C@@H]1CO[C@H]2[C@@H]1OC[C@H]2Oc1nc2nc(-c3ccc(-c4ccccc4)cc3)c(Cl)cc2[nH]1" . Reported pEC50: 8.85

The reported pEC50 of the compound "Cc1ccc(Oc2nc3cc(-c4ccc(-c5ccccc5)cc4)c(Cl)cc3[nH]2)cc1C(=O)O" was 8.10

The compound "O=C(O)c1c[nH]c2cc(Cl)c(-c3ccc(C4(O)CCC4)cc3)cc12" showed pEC50 equal to 8.15
